Molecular target: UniProt:Q01959
Sequence (Q01959 whole entry, the tested form may be a part): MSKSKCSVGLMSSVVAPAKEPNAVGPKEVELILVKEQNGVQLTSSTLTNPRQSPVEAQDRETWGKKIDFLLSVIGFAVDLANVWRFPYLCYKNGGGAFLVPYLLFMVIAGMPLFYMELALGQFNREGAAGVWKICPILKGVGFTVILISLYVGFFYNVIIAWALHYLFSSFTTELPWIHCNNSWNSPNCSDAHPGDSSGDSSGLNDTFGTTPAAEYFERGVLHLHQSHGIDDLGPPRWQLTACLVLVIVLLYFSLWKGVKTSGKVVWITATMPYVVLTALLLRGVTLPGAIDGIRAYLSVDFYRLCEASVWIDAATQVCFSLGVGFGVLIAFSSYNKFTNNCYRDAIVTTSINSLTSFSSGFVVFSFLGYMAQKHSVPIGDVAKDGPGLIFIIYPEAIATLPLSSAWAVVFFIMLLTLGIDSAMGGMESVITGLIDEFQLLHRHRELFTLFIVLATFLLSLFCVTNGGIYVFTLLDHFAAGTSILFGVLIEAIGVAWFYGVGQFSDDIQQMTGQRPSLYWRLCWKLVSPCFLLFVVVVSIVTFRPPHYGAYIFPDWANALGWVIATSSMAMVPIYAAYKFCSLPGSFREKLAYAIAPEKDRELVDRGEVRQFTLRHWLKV
Assay: Superfusion release of preloaded [3H]DA from HEK-hDAT cells
Type: cell-based
Details: read-out: Drug-induced release of [3H]neurotransmitter EC50 ± sem, hDAT [3H]DA; superfusion, AUC
# EC50 per entry

Please review the entries below; each comes with its answer.
>>> result("CCCC(C(=O)c1ccc2ccccc2c1)N1CCCC1 (stereo not drawn)")
"> 100 µM"
>>> result("CCCC(C(=O)c1ccc2c(c1)OCO2)N1CCCC1 (stereo not drawn)")
"> 100 µM"

Kindly consider the entry below.
Q: Entry CCC(NC)C(=O)c1ccc2c(c1)OCO2 (stereo not drawn) has what EC50?
Ans: > 10 µM

----------
Target: hVMAT2 (Homo sapiens, UniProt Q05940)
Sequence (Q05940 whole entry): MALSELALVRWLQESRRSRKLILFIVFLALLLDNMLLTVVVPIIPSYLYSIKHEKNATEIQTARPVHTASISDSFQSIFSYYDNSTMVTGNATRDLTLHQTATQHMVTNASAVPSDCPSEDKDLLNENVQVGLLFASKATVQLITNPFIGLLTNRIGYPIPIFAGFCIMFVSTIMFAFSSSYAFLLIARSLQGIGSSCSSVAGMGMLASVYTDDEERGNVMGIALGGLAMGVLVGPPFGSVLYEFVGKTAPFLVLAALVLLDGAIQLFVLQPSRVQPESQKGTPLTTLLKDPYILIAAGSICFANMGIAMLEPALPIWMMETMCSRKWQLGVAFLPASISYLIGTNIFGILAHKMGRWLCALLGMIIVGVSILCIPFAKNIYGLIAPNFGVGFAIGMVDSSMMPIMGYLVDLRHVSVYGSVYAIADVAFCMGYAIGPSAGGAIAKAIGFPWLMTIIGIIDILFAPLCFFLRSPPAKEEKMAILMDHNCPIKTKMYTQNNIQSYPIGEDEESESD
Test: Inhibition of [3H]5-HT uptake, HEK-hVMAT2 membrane preparation
Assay type: biochemical
Details: read-out: Inhibition of [3H]5-HT uptake IC50 ± sem, hVMAT2; 40 nM [3H]5-HT, 2 mM MgATP
Measured property: pIC50
Quick note: pIC50 means taking -log10 of the concentration in moles per liter.

Please review the entries below; each comes with its answer.
>>> measured_number("CCC1(O)CC2c3cc(OC)c(OC)cc3CCN2CC1CC(C)C (centres unmarked) [RO4-1284, reference compound]")
7.01
>>> measured_number("CNC(C)C(=O)c1ccc(F)cc1 (centres unmarked) [4-FMC, 4-fluoromethcathinone]")
3.75
>>> measured_number("CCCC(C(=O)c1ccc2ccccc2c1)N1CCCC1 (centres unmarked) [Naphyrone, naphthylpyrovalerone]")
4.67

Kindly consider the entry below.
Q: Entry CNC(C)C(=O)c1ccccc1 (centres unmarked) [Methcathinone, methcathinone, reference compound] has what pIC50?
Ans: 3.93
